meta.source: paper PMC4441592

Reported Emax values for the following molecules.
Biological target: KOR (Homo sapiens)
Sequence (P41145 whole entry): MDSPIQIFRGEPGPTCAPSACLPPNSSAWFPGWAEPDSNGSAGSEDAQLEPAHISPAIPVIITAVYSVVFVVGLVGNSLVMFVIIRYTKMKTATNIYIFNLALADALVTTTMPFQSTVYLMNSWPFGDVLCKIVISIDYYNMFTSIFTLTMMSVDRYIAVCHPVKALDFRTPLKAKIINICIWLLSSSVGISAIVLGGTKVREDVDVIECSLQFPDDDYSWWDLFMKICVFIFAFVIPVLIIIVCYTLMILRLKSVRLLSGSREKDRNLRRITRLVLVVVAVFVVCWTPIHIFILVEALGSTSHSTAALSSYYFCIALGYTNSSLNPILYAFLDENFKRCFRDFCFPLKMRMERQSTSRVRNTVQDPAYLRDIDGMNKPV
Experiment: cell-based
Peptide text beside a SMILES is read from it.
Response body: numeric value in %, unit text excluded.

// below: answered molecules
What does the record list as Emax for CSCC[C@H](NC(=O)[C@H](Cc1ccccc1)NC(=O)CNC(=O)CNC(=O)[C@@H](N)Cc1ccc(O)cc1)C(=O)O ? 79

What does the record list as Emax for CC[C@H](C)[C@H](NC(=O)[C@H](CCCNC(=N)N)NC(=O)[C@H](CCCNC(=N)N)NC(=O)[C@H](CC(C)C)NC(=O)[C@H](Cc1ccccc1)NC(=O)CNC(=O)CNC(=O)[C@@H](N)Cc1ccc(O)cc1)C(=O)O ? 94

What does the record list as Emax for CC(C)C[C@H](NC(=O)[C@H](Cc1ccccc1)NC(=O)CNC(=O)CNC(=O)[C@@H](N)Cc1ccc(O)cc1)C(=O)N[C@@H](CCCNC(=N)N)C(=O)N[C@@H](CCCNC(=N)N)C(=O)N[C@@H](CCC(N)=O)C(=O)N[C@@H](Cc1ccccc1)C(=O)N[C@@H](CCCCN)C(=O)N[C@H](C(=O)N[C@H](C(=O)N[C@H](C(=O)O)[C@@H](C)O)C(C)C)C(C)C ? 100

Next:
What does the record list as Emax for CC(C)C[C@H](NC(=O)[C@H](Cc1ccccc1)NC(=O)CNC(=O)CNC(=O)[C@@H](N)Cc1ccc(O)cc1)C(=O)N[C@@H](CCCNC(=N)N)C(=O)N[C@@H](CCCNC(=N)N)C(=O)O ? 97

What does the record list as Emax for CSCC[C@H](NC(=O)[C@H](Cc1ccccc1)NC(=O)CNC(=O)CNC(=O)[C@@H](N)Cc1ccc(O)cc1)C(=O)N[C@@H](CCCNC(=N)N)C(=O)N[C@@H](CCCNC(=N)N)C(=O)N[C@H](C(=O)NCC(=O)N[C@@H](CCCNC(=N)N)C(=O)N1CCC[C@H]1C(=O)N[C@@H](CCC(=O)O)C(=O)N[C@@H](Cc1c[nH]c2ccccc12)C(=O)N[C@@H](Cc1c[nH]c2ccccc12)C(=O)N[C@@H](CCSC)C(=O)N[C@@H](CC(=O)O)C(=O)N[C@@H](Cc1ccc(O)cc1)C(=O)N[C@@H](CCC(N)=O)C(=O)O)C(C)C [BAM 18] (H-YGGFMRRVGRPEWWMDYQ-OH) ? 97

What does the record list as Emax for COC(=O)[C@@H]1C[C@H](O)C(=O)[C@H]2[C@@]1(C)CC[C@H]1C(=O)O[C@H](c3ccoc3)C[C@]21C ? 80

What does the record list as Emax for CC(C)C[C@H](NC(=O)[C@H](Cc1ccccc1)NC(=O)CNC(=O)CNC(=O)[C@@H](N)Cc1ccc(O)cc1)C(=O)N[C@@H](CCCNC(=N)N)C(=O)O [Dynorphin A(1-6)] (H-YGGFLR-OH) ? 86

What does the record list as Emax for CSCC[C@H](NC(=O)[C@H](Cc1ccccc1)NC(=O)CNC(=O)CNC(=O)[C@@H](N)Cc1ccc(O)cc1)C(=O)N[C@@H](CCCNC(=N)N)C(=O)N[C@@H](CCCNC(=N)N)C(=O)N[C@H](C(N)=O)C(C)C [Metorphamide] ? 97

What does the record list as Emax for CC(C)C[C@H](NC(=O)[C@H](Cc1ccccc1)NC(=O)CNC(=O)CNC(=O)[C@@H](N)Cc1ccc(O)cc1)C(=O)N[C@@H](CCCNC(=N)N)C(=O)N[C@@H](CCCCN)C(=O)N[C@@H](Cc1ccc(O)cc1)C(=O)N1CCC[C@H]1C(=O)N[C@@H](CCCCN)C(=O)O [α-Neoendrophin] (H-YGGFLRKYPK-OH) ? 95

What does the record list as Emax for CC[C@H](C)[C@H](NC(=O)[C@H](CCCNC(=N)N)NC(=O)[C@H](CCCNC(=N)N)NC(=O)[C@H](CC(C)C)NC(=O)[C@H](Cc1ccccc1)NC(=O)CNC(=O)CNC(=O)[C@@H](N)Cc1ccc(O)cc1)C(=O)N[C@@H](CCCNC(=N)N)C(=O)O [Dynorphin A(1-9)] (H-YGGFLRRIR-OH) ? 93

What does the record list as Emax for CSCC[C@H](NC(=O)[C@H](Cc1ccccc1)NC(=O)CNC(=O)CNC(=O)[C@@H](N)Cc1ccc(O)cc1)C(=O)N[C@@H](CCCNC(=N)N)C(=O)N[C@@H](Cc1ccccc1)C(=O)O [Met-enkephalin-Arg-Phe] (H-YGGFMRF-OH) ? 99

What does the record list as Emax for CSCC[C@H](NC(=O)[C@H](Cc1ccccc1)NC(=O)CNC(=O)CNC(=O)[C@@H](N)Cc1ccc(O)cc1)C(=O)N[C@@H](CCCNC(=N)N)C(=O)N[C@@H](CCCNC(=N)N)C(=O)N[C@H](C(=O)NCC(=O)N[C@@H](CCCNC(=N)N)C(=O)N1CCC[C@H]1C(=O)N[C@@H](CCC(=O)O)C(=O)O)C(C)C [BAM 12] (H-YGGFMRRVGRPE-OH) ? 99
